// reported Plant response rating, Galium per item
system: galium (catchweed bedstraw, Galium aparine); assay: Test B pre-/postemergence plant response; assay type: in vivo; details: Preemergence, 62 g ai/ha; scale 0 to 100 (0 no effect, 100 complete control)
API note: the answer field is a bare number with no unit suffix.

Solved entries (count: 3):
# compound, target-or-system, Plant response rating, Galium
records = [
    ("CCCc1ncc(C(=O)C2=C(O)CCCC2=O)c(=O)n1-c1ccccc1C [Compound 73]", "galium (catchweed bedstraw, Galium aparine)", 30),
    ("COCCn1c(-c2cc(F)cc(F)c2)ncc(C(=O)C2=C(O)C3CCC(C3)C2=O)c1=O (stereo not shown) [Compound 243]", "galium (catchweed bedstraw, Galium aparine)", 90),
    ("Cc1ccccc1-n1c(-c2cccc(Cl)c2)ncc(C(=O)C2=C(O)CCCC2=O)c1=O [Compound 36]", "galium (catchweed bedstraw, Galium aparine)", 80),
]

Note: attention shifts to another entry.
Ask: Item: O=C1CCCC(O)=C1C(=O)c1cnc(-c2ccccc2)n(-c2ccccc2F)c1=O [Compound 26] Test system: galium (catchweed bedstraw, Galium aparine) Read-out: Plant response rating, Galium Value: ?
Result: 50

* * *

// reported Plant response rating, Black Mustard per item
tested on: black mustard (Brassica nigra); assay: Test D pre-/postemergence plant response; assay type: in vivo; settings: Postemergence, 31 g ai/ha; scale 0 to 100 (0 no effect, 100 complete control)
API note: the answer field is a bare number with no unit suffix.

# compound, target-or-system, experimental-value
data = [
    ("O=C1CCCC(O)=C1C(=O)c1cnc(-c2ccccc2)n(CC2CCCO2)c1=O (stereo not shown) [Compound 59]", "black mustard (Brassica nigra)", 40),
    ("COCCn1c(-c2ccccc2)ncc(C(=O)C2=C(O)CCCC2=O)c1=O [Compound 85]", "black mustard (Brassica nigra)", 60),
    ("COCCCn1c(-c2cccc(F)c2)ncc(C(=O)C2=C(O)C3CCC(C3)C2=O)c1=O (stereo not shown) [Compound 238]", "black mustard (Brassica nigra)", 80),
]

Note: attention shifts to another entry.
Ask: Any idea what Plant response rating, Black Mustard was measured for COCCn1c(-c2cccc(F)c2)ncc(C(=O)C2=C(O)C3CCC(C3)C2=O)c1=O (stereo not shown) [Compound 235] ?
Result: 80

* * *

tested on: ragweed (common ragweed, Ambrosia elatior); experiment: Test B pre-/postemergence plant response; format: in vivo; conditions: 31 g ai/ha, postemergence; scale 0 to 100, 0 is no effect, 100 is complete control
measurement-name: Plant response rating, Ragweed
API note: the answer field is a bare number with no unit suffix.

Solved entries (count: 5):
# molecule, Plant response rating, Ragweed
records = [
    ("CCCCc1ncc(C(=O)C2=C(O)CCCC2=O)c(=O)n1-c1ccc(C)cc1", 75),
    ("Cc1ccc(-c2ncc(C(=O)C3=C(O)CCCC3=O)c(=O)n2-c2ccccc2)cc1", 50),
    ("O=C1CCCC(O)=C1C(=O)c1cnc(-c2ccsc2)n(-c2ccccc2)c1=O", 55),
    ("CC(C)n1c(-c2ccccc2)ncc(C(=O)C2=C(O)CCCC2=O)c1=O", 75),
    ("O=C1CCCC(O)=C1C(=O)c1cnc(-c2ccccc2)n(CC2CCCO2)c1=O (centres unmarked)", 75),
]

Ask: Any idea what Plant response rating, Ragweed was measured for `COCCn1c(-c2ccccc2)ncc(C(=O)C2=C(O)CCCC2=O)c1=O` ?
Result: 80

Ask: Next molecule up: `CCCc1ncc(C(=O)C2=C(O)CCCC2=O)c(=O)n1-c1ccccc1C`
Result: 75

Ask: Next molecule up: `CCCCCn1c(-c2ccccc2)ncc(C(=O)C2=C(O)CCCC2=O)c1=O`
Result: 70

Where these numbers come from: patent US8952024B2
